Sourced from PubChem BioAssay AID2060489

Exercise: state measured viability, T/C for each of the compounds provided.
Tested on: 922993-354-T-J3-PDC complex spheroids, viability
test-name: Anticancer human tumor 922993-354-T-J3-PDC patient-derived endometrial carcinoma cell line growth inhibition [GQUAD]
test-conditions: second compound 0.316 µM; first compound 0.1 µM; hits give low values
Answer in %, number only, no unit symbol.

Q: Quick one: viability, T/C for CCCS(=O)(=O)Nc1ccc(F)c(C(=O)c2c[nH]c3ncc(-c4ccc(Cl)cc4)cc23)c1F + CN(C)c1ccc(Nc2c3ccc(NC(=O)CCN4CCCC4)cc3nc3cc(NC(=O)CCN4CCCC4)ccc23)cc1 ?
Result: 78.5

Q: Quick one: viability, T/C for Nc1ccn(C2OC(CO)C(O)C2(F)F)c(=O)n1 (stereo unspecified) + Cc1cnc(CNC(=O)c2c(=O)c3ccc(N4CCCN(C)CC4)nc3n3c2sc2ccccc23)cn1 ?
Result: 34.5

Q: Quick one: viability, T/C for C=CCn1c(=O)c2cnc(Nc3ccc(N4CCN(C)CC4)cc3)nc2n1-c1cccc(C(C)(C)O)n1 + CN(C)c1ccc(Nc2c3ccc(NC(=O)CCN4CCCC4)cc3nc3cc(NC(=O)CCN4CCCC4)ccc23)cc1 ?
Result: 101

Q: Quick one: viability, T/C for COc1cc(C2c3cc4c(cc3C(OC3OC5COC(C)OC5C(O)C3O)C3COC(=O)C23)OCO4)cc(OC)c1O (stereo unspecified) + Cc1cnc(CNC(=O)c2c(=O)c3ccc(N4CCCN(C)CC4)nc3n3c2sc2ccccc23)cn1 ?
Result: 53.2

Q: Quick one: viability, T/C for CC1COCCN1c1cc(-c2ccnn2C)c2ccnc(-c3ccn[nH]3)c2n1 (stereo unspecified) + CN(C)c1ccc(Nc2c3ccc(NC(=O)CCN4CCCC4)cc3nc3cc(NC(=O)CCN4CCCC4)ccc23)cc1 ?
Result: 58.1

Q: Quick one: viability, T/C for O=c1[nH]cc(F)c(=O)[nH]1 + Cc1[nH]c2ccc(F)cc2c1-c1nc2c3cccnc3c3ncccc3c2[nH]1 ?
Result: 83.7

----------
System: 922993-354-T-J3-PDC complex spheroids, viability
test-name: Anticancer human tumor 922993-354-T-J3-PDC cell line growth inhibition [GQUAD];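 note: spheroids exposed to compounds for seven days; 100% = DMSO vehicle control viability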
test-conditions: second compound 0.316 µM; first compound 0.1 µM; hits give low values
Description: DNA G-quadruplex Stabilizer Agents in Combinations in Complex Spheroids A high-throughput screen of multi-cell type tumor spheroids was designed to identify active combinations of DNA G-quadruplex stabilizer agents and targeted small molecules. […] Compounds. […] If the clinical Cmax for an agent had not been determined, the highest concentration tested was 10 microM. […]
Exercise: state measured viability, T/C for each of the compounds provided.
Answer in %, number only, no unit symbol.

Q: Quick one: viability, T/C for CC1COCCN1c1cc(-c2ccnn2C)c2ccnc(-c3ccn[nH]3)c2n1 (stereo not given) + Cc1[nH]c2ccc(F)cc2c1-c1nc2c3cccnc3c3ncccc3c2[nH]1 ?
Result: 76.3

Q: Quick one: viability, T/C for C#Cc1c(F)ccc2cc(O)cc(-c3ncc4c(N5CC6CCC(C5)N6)nc(OCC56CCCN5CC(F)C6)nc4c3F)c12 (stereo not given) + CN(C)c1ccc(Nc2c3ccc(NC(=O)CCN4CCCC4)cc3nc3cc(NC(=O)CCN4CCCC4)ccc23)cc1 ?
Result: 97.4

Q: Quick one: viability, T/C for COc1ncnc(C2CC2)c1-c1ncc2cnn(Cc3ccc(-c4nc(C(F)(F)F)cn4C(C)C)cc3)c2n1 + Cc1cnc(CNC(=O)c2c(=O)c3ccc(N4CCCN(C)CC4)nc3n3c2sc2ccccc23)cn1 ?
Result: 34.5

Q: Quick one: viability, T/C for COc1cccc2c1C(=O)c1c(O)c3c(c(O)c1C2=O)CC(O)(C(=O)CO)CC3OC1CC(N)C(O)C(C)O1 (stereo not given) + CN(C)c1ccc(Nc2c3ccc(NC(=O)CCN4CCCC4)cc3nc3cc(NC(=O)CCN4CCCC4)ccc23)cc1 ?
Result: 94.8

Q: Quick one: viability, T/C for CC(C)n1c(=O)n(C)c2cnc3cc(F)c(-c4ccc(OCCCN5CCCCC5)nc4)cc3c21 + CN(C)c1ccc(Nc2c3ccc(NC(=O)CCN4CCCC4)cc3nc3cc(NC(=O)CCN4CCCC4)ccc23)cc1 ?
Result: 91.7
